- Read-out: Cytochrome P450 3A7 (Homo sapiens) (UniProt P24462)
- Sequence (P24462 whole entry, looked up): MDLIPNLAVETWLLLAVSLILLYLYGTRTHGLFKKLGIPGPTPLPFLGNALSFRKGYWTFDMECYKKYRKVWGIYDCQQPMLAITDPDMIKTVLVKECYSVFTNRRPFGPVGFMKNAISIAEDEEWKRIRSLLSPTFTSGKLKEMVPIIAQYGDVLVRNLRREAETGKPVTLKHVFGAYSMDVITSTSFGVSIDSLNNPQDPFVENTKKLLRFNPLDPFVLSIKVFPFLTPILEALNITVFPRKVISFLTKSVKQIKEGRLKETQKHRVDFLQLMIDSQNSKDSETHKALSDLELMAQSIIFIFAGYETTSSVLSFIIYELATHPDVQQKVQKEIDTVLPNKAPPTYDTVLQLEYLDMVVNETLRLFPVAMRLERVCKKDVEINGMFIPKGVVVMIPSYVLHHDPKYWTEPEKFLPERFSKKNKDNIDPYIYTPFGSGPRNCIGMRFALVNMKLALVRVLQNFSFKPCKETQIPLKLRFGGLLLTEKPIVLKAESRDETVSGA
- assay info: LTEA_HepaRG_CYP3A7: Life Technologies and Expression Analysis (LTEA) Assay for CYP3A7 using HepaRG (AID 2283492)
- run parameters: mRNA level, 48 h; actives raise or lower the signal
The source made the active and inactive calls. Rule for the calls: active = hit-call score of the fitted dose curve at least 0.9, where 1 is the maximum; inactive = score below 0.9.
# output must be one of y = active, n = inactive

Query :: // outcome(item) with item = Cn1c(=O)c2[nH]cnc2n(C)c1=O
Result :: n

Query :: Answer briefly: the call reported for COc1cc(C(C)C)c2c(c1)S(=O)(=O)N(COc1cc(=O)n3cccc(OCCN4CCCCC4)c3n1)C2=O in this assay.
Result :: y

Query :: Field: outcome | Entry: CC1(C)C(=O)N(Cl)C(=O)N1Cl
Result :: n

Query :: In this assay, the call recorded for OC(Cn1cncn1)(Cn1cncn1)c1ccc(F)cc1F was what?
Result :: n

Query :: // return assay outcome for Cc1nc(-c2ccccn2)ncc1C(=O)Nn1cc(C)c2cc(F)ccc21
Result :: y

Query :: Identify the outcome logged in this assay for the molecule shown: NC(=O)N(O)[C@@H]1COc2cc(OCc3ccccc3)ccc21
Result :: n

Query :: What did the test return for Cc1ncc([C@@H](CCCCCCc2ccc3c(n2)NCCC3)CC(=O)O)cn1 ?
Result :: n

Query :: What was the test verdict on O=S(=O)(O)c1ccc(N=Nc2c(O)ccc3cc(S(=O)(=O)O)ccc23)cc1 ?
Result :: n

Query :: Assay outcome for c1ccc2c(c1)-c1cccc3c1c-2cc1ccccc13 : what was it?
Result :: y

Query :: Outcome? OC[C@H]1O[C@@H]2O[C@H]3[C@H](O)[C@@H](O)[C@@H](O[C@H]4[C@H](O)[C@@H](O)[C@@H](O[C@H]5[C@H](O)[C@@H](O)[C@@H](O[C@H]6[C@H](O)[C@@H](O)[C@@H](O[C@H]7[C@H](O)[C@@H](O)[C@@H](O[C@H]1[C@H](O)[C@H]2O)O[C@@H]7CO)O[C@@H]6CO)O[C@@H]5CO)O[C@@H]4CO)O[C@@H]3CO
Result :: n

Query :: Hi, sorry to bother you, what did the test record for NC(=O)NN=Cc1ccc([N+](=O)[O-])o1 ?
Result :: n

Query :: // return assay outcome for c1ccc2cc3ccccc3cc2c1
Result :: y

Query :: State the result this test recorded for CCCCCCOC(=O)CC(CC(=O)OCCCCCC)(OC(=O)CCC)C(=O)OCCCCCC .
Result :: n

###

- assay info: ATG_ERE_CIS: Attagene CIS-FACTORIAL HepG2 Assay for Estrogen Response Element (ERE) (AID 2282940)
- run parameters: HepG2 ERE cis-reporter, Attagene RNA transcript; actives raise or lower the signal
The source made the active and inactive calls. How the source made its calls: active means hit-call score of the fitted dose curve at least 0.9, where 1 is the maximum; inactive means score below 0.9.
Give one outcome, nothing more. List: 1 (active), 0 (inactive)

As a guide, the following entries are already answered.
[
  {
    "smiles text": "OC[C@H]1O[C@@H]2O[C@H]3[C@H](O)[C@@H](O)[C@@H](O[C@H]4[C@H](O)[C@@H](O)[C@@H](O[C@H]5[C@H](O)[C@@H](O)[C@@H](O[C@H]6[C@H](O)[C@@H](O)[C@@H](O[C@H]7[C@H](O)[C@@H](O)[C@@H](O[C@H]1[C@H](O)[C@H]2O)O[C@@H]7CO)O[C@@H]6CO)O[C@@H]5CO)O[C@@H]4CO)O[C@@H]3CO",
    "qualitative label": 0
  },
  {
    "smiles text": "O=S1(=O)CCCO1",
    "qualitative label": 0
  },
  {
    "smiles text": "CCCCCCCC/C=C\\CCCCCCCC(=O)OC[C@@H](O)[C@H]1OC[C@H](O)[C@H]1O",
    "qualitative label": 0
  },
  {
    "smiles text": "Cc1nc(-c2ccccn2)ncc1C(=O)Nn1cc(C)c2cc(F)ccc21",
    "qualitative label": 0
  },
  {
    "smiles text": "OCc1c[nH]c2ccccc12",
    "qualitative label": 1
  },
  {
    "smiles text": "C=CN1CCCC1=O",
    "qualitative label": 0
  },
  {
    "smiles text": "NC(=O)N1c2ccccc2C=Cc2ccccc21",
    "qualitative label": 1
  },
  {
    "smiles text": "CCN(CC)C(=S)SSC(=S)N(CC)CC",
    "qualitative label": 0
  }
]

Query :: I'd appreciate the recorded outcome for NC(=O)N(O)[C@@H]1COc2cc(OCc3ccccc3)ccc21 from this test.
Result :: 0

Query :: Could you please tell me the result logged for Cc1ccc(S(=O)(=O)NC(=O)NN2CCCCCC2)cc1 in this assay?
Result :: 0
